Target: Histamine H3 receptor (Homo sapiens, UniProt Q9Y5N1); further: assay procedure not described here
Sequence (Q9Y5N1 whole entry): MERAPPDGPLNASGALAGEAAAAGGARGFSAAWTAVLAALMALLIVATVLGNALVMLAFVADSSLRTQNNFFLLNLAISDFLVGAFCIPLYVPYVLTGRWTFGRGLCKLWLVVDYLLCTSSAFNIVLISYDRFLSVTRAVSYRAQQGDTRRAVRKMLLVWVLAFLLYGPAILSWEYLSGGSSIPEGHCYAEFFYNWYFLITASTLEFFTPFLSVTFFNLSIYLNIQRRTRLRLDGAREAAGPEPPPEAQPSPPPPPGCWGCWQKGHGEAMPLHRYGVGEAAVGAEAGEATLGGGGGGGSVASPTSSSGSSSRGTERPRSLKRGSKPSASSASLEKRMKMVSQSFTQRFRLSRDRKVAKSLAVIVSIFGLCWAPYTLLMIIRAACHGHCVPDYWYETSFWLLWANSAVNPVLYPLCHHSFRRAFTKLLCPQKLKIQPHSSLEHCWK
measurement kind: AC50

# example entries with known answers
1) OC[C@H]1O[C@@](CO)(O[C@H]2O[C@H](CO)[C@@H](O)[C@H](O)[C@H]2O)[C@@H](O)[C@@H]1O [SUCROSE] :: > 30 µM
2) CCC[C@H](NC(=O)[C@@H]1[C@H]2CCC[C@H]2CN1C(=O)[C@@H](NC(=O)[C@@H](NC(=O)c1cnccn1)C1CCCCC1)C(C)(C)C)C(=O)C(=O)NC1CC1 :: > 10 µM
3) NC1CCN(c2nc3c(cc2F)c(=O)c(C(=O)O)cn3-c2ccc(F)cc2F)C1 (configuration not stated) [TOSUFLOXACIN] :: > 30 µM
4) CC(C)COCC(CN(Cc1ccccc1)c1ccccc1)N1CCCC1 (configuration not stated) [BEPRIDIL] :: > 30 µM
5) CC(C)(C)C(=O)OCC(=O)[C@H]1CC[C@H]2[C@@H]3CCC4=CC(=O)CC[C@]4(C)[C@H]3CC[C@]12C [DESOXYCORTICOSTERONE PIVALATE] :: > 10 µM

Task item: Quick check: AC50 of CC(=O)[C@]1(O)Cc2c(O)c3c(c(O)c2[C@@H](O[C@H]2C[C@H](N)[C@H](O)[C@H](C)O2)C1)C(=O)c1ccccc1C3=O [IDARUBICIN] ?
Reply: > 30 µM

Task item: Please give the result for C=C1/C(=C\C=C2/CCC[C@]3(C)[C@@H]([C@H](C)/C=C/[C@@H](O)C4CC4)CC[C@@H]23)C[C@@H](O)C[C@@H]1O [CALCIPOTRIENE] too.
Reply: > 30 µM

###

Listing: AC50 of selected molecules
Molecular target: 5-hydroxytryptamine receptor 2C (Homo sapiens, UniProt P28335); further: assay procedure not described here
Sequence (P28335 whole entry): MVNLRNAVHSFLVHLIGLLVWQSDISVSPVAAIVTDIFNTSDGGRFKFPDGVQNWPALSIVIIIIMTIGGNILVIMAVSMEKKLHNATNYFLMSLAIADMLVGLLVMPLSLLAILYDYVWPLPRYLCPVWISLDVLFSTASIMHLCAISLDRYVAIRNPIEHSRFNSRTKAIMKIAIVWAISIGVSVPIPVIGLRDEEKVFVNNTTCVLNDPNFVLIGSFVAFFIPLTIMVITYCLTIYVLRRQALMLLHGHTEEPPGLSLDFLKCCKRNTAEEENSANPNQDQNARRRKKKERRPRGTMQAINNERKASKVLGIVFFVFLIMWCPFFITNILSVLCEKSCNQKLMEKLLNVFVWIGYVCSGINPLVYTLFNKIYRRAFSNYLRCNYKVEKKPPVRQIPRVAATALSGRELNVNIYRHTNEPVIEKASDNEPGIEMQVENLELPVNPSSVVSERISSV

The cases that follow already have their AC50 on record.
1) O=[N+]([O-])c1ccc(O)c2ncccc12 :: 5.5 µM
2) O=C1CCc2cc(OCCCCc3nnnn3C3CCCCC3)ccc2N1 :: > 30 µM
3) COc1cc2nccc(Oc3ccc(NC(=O)C4(C(=O)Nc5ccc(F)cc5)CC4)cc3)c2cc1OC [CABOZANTINIB] :: > 30 µM

Task item: Could you tell me which AC50 is on file for O=C1C(CC[S+]([O-])c2ccccc2)C(=O)N(c2ccccc2)N1c1ccccc1 (stereo unspecified) ?
Reply: > 30 µM

Task item: For `CCCCC1C(=O)N(c2ccccc2)N(c2ccccc2)C1=O` then?
Reply: > 30 µM

Task item: # repeat for `CN1C[C@H](C(=O)N[C@]2(C)O[C@@]3(O)[C@@H]4CCCN4C(=O)[C@H](Cc4ccccc4)N3C2=O)C=C2c3cccc4[nH]cc(c34)C[C@H]21`
Reply: 3.8 µM

Task item: Try the molecule CC(CCc1ccc(O)cc1)NCCc1ccc(O)c(O)c1 (stereo unspecified)
Reply: > 30 µM

Task item: Next up: `C[C@@H](Oc1cc(-c2cnn(C3CCNCC3)c2)cnc1N)c1c(Cl)ccc(F)c1Cl`
Reply: > 30 µM

###

Target: 5-hydroxytryptamine receptor 1A (Homo sapiens)
Format: functional, cell-based
measurement kind: AC50

1) CC(C(=O)O)c1ccc(-c2ccccc2)c(F)c1 (stereo unspecified) :: > 10 µM
2) C=C[C@@]1(C)CC(=O)[C@]2(O)[C@@]3(C)[C@@H](O)CCC(C)(C)[C@@H]3[C@H](O)[C@H](OC(C)=O)[C@@]2(C)O1 :: 1.2 µM
3) O=C1CN(/N=C/c2ccc(-c3ccc([N+](=O)[O-])cc3)o2)C(O)=N1 :: > 10 µM
4) COc1ccccc1Oc1c(NS(=O)(=O)c2ccc(C(C)(C)C)cc2)nc(-c2ncccn2)nc1OCCO :: > 10 µM
5) Nc1cc(-c2ccncc2)c[nH]c1=O :: > 10 µM

Task item: Please report the recorded AC50 for Cc1cnc(C(=O)NCCc2ccc(S(=O)(=O)NC(=O)NC3CCCCC3)cc2)cn1 [GLIPIZIDE] .
Reply: > 10 µM

Task item: Check C#CCOc1ccc(N)cc1C(=O)NCCCC [PARSALMIDE] too.
Reply: > 30 µM

###

Biological target: Alpha-2B adrenergic receptor (Homo sapiens, UniProt P18089); further: assay procedure not described here
Sequence (P18089 whole entry): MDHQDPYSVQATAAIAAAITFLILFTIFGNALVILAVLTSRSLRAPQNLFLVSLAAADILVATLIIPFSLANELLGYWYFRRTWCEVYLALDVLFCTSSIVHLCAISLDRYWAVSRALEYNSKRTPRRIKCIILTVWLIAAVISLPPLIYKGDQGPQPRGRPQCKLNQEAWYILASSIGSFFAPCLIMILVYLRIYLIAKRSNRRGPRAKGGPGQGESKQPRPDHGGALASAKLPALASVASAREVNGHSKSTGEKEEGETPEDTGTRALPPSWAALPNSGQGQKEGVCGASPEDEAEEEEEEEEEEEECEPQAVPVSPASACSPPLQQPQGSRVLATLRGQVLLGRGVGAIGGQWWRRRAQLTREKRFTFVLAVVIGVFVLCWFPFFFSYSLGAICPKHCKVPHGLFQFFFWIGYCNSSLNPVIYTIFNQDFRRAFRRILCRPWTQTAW
measurement kind: AC50

Worked set:
1) [H]/N=C(/N)N/C(=N/[H])NCCc1ccccc1 [PHENFORMIN] :: 15 µM
2) CCN(CC)CCNC(=O)c1c(C)[nH]c(/C=C2\C(=O)Nc3ccc(F)cc32)c1C [SUNITINIB] :: 4.37 µM

Task item: Entry under review: Cc1ncc2n1-c1ccc(Cl)cc1C(c1ccccc1F)=NC2 [MIDAZOLAM] . Reported AC50?
Reply: > 10 µM

Task item: Query CCCCCC(=O)O[C@]1(C(C)=O)CC[C@H]2[C@@H]3CCC4=CC(=O)CC[C@]4(C)[C@H]3CC[C@@]21C [HYDROXYPROGESTERONE CAPROATE] next
Reply: > 30 µM

Task item: What would you report for `C[N@+]1(CCF)[C@@H]2CC[C@H]1C[C@@H](OC(=O)C(O)(c1ccccc1)c1ccccc1)C2` ?
Reply: > 30 µM

Task item: Note, next up: C[C@]12C=CC(=O)N[C@@H]1CC[C@@H]1[C@@H]2CC[C@]2(C)[C@@H](C(=O)Nc3cc(C(F)(F)F)ccc3C(F)(F)F)CC[C@@H]12 [DUTASTERIDE]
Reply: > 10 µM

Task item: How about this molecule: C[C@]12CCC(=O)C(O)=C1CC[C@@H]1[C@@H]2CC[C@]2(C)C(=O)CC[C@@H]12 [FORMESTANE]
Reply: > 30 µM

Task item: Also need C[C@H](Cc1ccc(O)c(O)c1)[C@@H](C)Cc1ccc(O)c(O)c1 [MASOPROCOL] , thanks.
Reply: 8.1 µM

Task item: For COc1cc2nccc(Oc3ccc(NC(=O)C4(C(=O)Nc5ccc(F)cc5)CC4)cc3)c2cc1OC [CABOZANTINIB] then?
Reply: > 30 µM

Task item: Another molecule to check: COc1ccc(-c2noc(CC(=O)O)c2-c2ccc(OC)cc2)cc1 [MOFEZOLAC]
Reply: > 30 µM

Task item: Try this molecule too: Clc1ccc2c(N3CCN(CCCN4CCN(c5ccnc6cc(Cl)ccc56)CC4)CC3)ccnc2c1 [PIPERAQUINE]
Reply: > 30 µM

Task item: Cool, now CN1CCC(=C2c3ccccc3CCc3cccnc32)CC1 [AZATADINE]
Reply: > 10 µM

Task item: // same read-out, input: CC(=O)N[C@@H](CS)C(=O)O [ACETYLCYSTEINE]
Reply: > 10 µM

###

Alpha-1A adrenergic receptor (Homo sapiens, UniProt P35348) data, read-out AC50; further: assay procedure not described here
Sequence (P35348 whole entry): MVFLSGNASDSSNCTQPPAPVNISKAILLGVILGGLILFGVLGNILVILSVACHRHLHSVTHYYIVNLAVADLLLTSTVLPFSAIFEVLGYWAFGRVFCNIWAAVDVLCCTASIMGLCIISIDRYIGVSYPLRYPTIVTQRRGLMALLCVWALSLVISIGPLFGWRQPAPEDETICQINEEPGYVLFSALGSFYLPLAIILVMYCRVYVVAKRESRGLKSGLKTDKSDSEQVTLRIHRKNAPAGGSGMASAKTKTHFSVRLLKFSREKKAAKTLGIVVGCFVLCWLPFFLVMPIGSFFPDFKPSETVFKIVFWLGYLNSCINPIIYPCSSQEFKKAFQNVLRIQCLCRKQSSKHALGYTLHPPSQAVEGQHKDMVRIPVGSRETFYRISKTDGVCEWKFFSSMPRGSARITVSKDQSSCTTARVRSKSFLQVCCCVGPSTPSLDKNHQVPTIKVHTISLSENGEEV

Use these answered entries as a reference point.
1. Cc1onc(-c2ccccc2)c1-c1ccc(S(N)(=O)=O)cc1 [VALDECOXIB] :: > 10 µM
2. CO[C@H]1/C=C/O[C@@]2(C)Oc3c(C)c(O)c4c(O)c(c(/C=N/N5CCN(C)CC5)c(O)c4c3C2=O)NC(=O)/C(C)=C\C=C\[C@H](C)[C@H](O)[C@@H](C)[C@@H](O)[C@@H](C)[C@H](OC(C)=O)[C@@H]1C [RIFAMPIN] :: > 10 µM

Here is another molecule to look at.
Task item: Record lookup: for Alpha-1A adrenergic receptor (Homo sapiens, UniProt P35348), what AC50 belongs to CC(C)Cc1ccc(C(C)C(=O)O)cc1 (stereo not drawn) [IBUPROFEN] ?
Reply: > 10 µM

###

Each entry below carries its recorded AC50.
Target: Adenosine receptor A2a (Homo sapiens, UniProt P29274); further: assay procedure not described here
Sequence (P29274 whole entry): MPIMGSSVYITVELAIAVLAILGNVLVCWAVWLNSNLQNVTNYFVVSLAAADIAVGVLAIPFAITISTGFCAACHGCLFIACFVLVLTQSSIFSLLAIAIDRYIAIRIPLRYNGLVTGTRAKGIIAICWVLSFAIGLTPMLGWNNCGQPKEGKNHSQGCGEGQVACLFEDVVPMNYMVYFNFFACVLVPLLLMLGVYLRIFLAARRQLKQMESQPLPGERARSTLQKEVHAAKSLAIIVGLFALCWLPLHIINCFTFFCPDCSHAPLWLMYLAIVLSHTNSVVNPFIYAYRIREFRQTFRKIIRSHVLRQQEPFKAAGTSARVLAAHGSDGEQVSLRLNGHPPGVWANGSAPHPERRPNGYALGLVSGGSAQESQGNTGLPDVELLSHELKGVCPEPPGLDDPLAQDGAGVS

Solved entries:
1) Cc1cc2cc3c(C)cc(=O)oc3c(C)c2o1 :: 6.7 µM
2) CC1=C(C)C(=O)C(C(CCCCCC(=O)O)c2ccccc2)=C(C)C1=O (stereo not given) :: > 30 µM

Task item: Please state recorded AC50 (tested on Adenosine receptor A2a (Homo sapiens, UniProt P29274)) of CCC(C)C(CC)C(N)=O (stereo not given) [VALNOCTAMIDE]; further: assay procedure not described here
Reply: > 30 µM

Task item: Then this molecule: CC(C)(C)C(=O)OCC(=O)[C@H]1CC[C@H]2[C@@H]3CCC4=CC(=O)CC[C@]4(C)[C@H]3CC[C@]12C [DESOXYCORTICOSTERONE PIVALATE]
Reply: > 10 µM

Task item: How about `C[N@+]1(CCF)[C@@H]2CC[C@H]1C[C@@H](OC(=O)C(O)(c1ccccc1)c1ccccc1)C2` ?
Reply: > 30 µM

###

Each record here notes measured AC50.
Target: 5-hydroxytryptamine receptor 1A (Homo sapiens, UniProt P08908)
Sequence (P08908 whole entry): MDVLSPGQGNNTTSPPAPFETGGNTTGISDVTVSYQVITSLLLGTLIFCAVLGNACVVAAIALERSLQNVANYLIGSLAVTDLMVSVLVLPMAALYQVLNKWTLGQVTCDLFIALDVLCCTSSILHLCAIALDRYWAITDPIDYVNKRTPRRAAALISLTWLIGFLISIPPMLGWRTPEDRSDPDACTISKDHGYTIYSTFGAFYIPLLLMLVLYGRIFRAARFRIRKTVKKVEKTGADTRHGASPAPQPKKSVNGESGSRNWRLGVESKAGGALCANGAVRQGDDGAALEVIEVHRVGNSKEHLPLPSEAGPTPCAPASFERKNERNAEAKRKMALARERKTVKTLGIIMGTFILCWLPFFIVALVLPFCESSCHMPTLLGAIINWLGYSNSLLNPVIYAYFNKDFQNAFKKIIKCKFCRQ
Assay type: functional, cell-based

1) CCCCC(=O)O[C@]1(C(=O)CO)[C@@H](C)C[C@H]2[C@@H]3CCC4=CC(=O)C=C[C@]4(C)[C@@]3(F)[C@@H](O)C[C@@]21C [BETAMETHASONE VALERATE] :: > 30 µM
2) CCCN[C@H]1CCc2nc(N)sc2C1 [PRAMIPEXOLE] :: 16 µM
3) COCC1=C(C(=O)O)N2C(=O)[C@@H](NC(=O)/C(=N\OC)c3csc(N)n3)[C@H]2SC1 :: > 30 µM
4) CCCCCCCCCCCCCCCCCCCCCC(=O)Nc1ccn([C@@H]2O[C@H](CO)[C@@H](O)[C@@H]2O)c(=O)n1 :: > 30 µM

Task item: Which AC50 is listed for CCCCCC(=O)O[C@]1(C(C)=O)CC[C@H]2[C@@H]3CCC4=CC(=O)CC[C@]4(C)[C@H]3CC[C@@]21C [HYDROXYPROGESTERONE CAPROATE] ?
Reply: > 30 µM

Task item: Param item: CC(N)C(O)c1ccccc1 (stereo unspecified)
Reply: > 10 µM
